target: Trace amine-associated receptor 1 (Homo sapiens); test: TAAR1 agonists, concentration-response, dose response, cell-based, fluorescence, MedChem round 1 (AID 743491); conditions: cells expressing human TAAR1, fluorescence agonist read-out
Active and inactive are the calls of the source. How the calls were made is not given here.
Outcomes you can answer with include only these: True (active), False (inactive)

# example entries with known answers
1) NC(=O)CCN1C[C@H](c2ccccc2)[C@@H]2[C@H]1C1CCN2CC1 = False
2) CC1CN(CCC(=O)c2ccc3c(c2)OCCO3)CC1c1ccccc1 (stereo unspecified) = True
3) O=C(CCN1CCC(O)(c2ccc(F)cc2)C1)c1ccc2c(c1)OCCO2 (stereo unspecified) = False
4) Cc1ccc(C(=O)CCN2CCC(c3ccccc3)C2)cc1 (stereo unspecified) = True

[Q] Assay result, entry `O=C(CCN1C[C@@H](C(=O)O)[C@H](c2cccc(F)c2)C1)NC1CC1` — outcome?
[A] False

[Q] Assay result, entry CC(CN1CCCC1Cc1ccccc1)C(=O)c1ccc2c(c1)OCCO2 (stereo unspecified) — outcome?
[A] True

[Q] Assay result, entry O=C(CCN1CCC(O)(c2ccccc2)C1)c1ccc2c(c1)OCCO2 (stereo unspecified) — outcome?
[A] False

[Q] Assay result, entry `O=C(CCN1C[C@@H](C(=O)O)[C@H](c2ccccc2)C1)NCc1cccs1` — outcome?
[A] False

[Q] Assay result, entry O=C(CCN1CCC(c2ccccc2)C1)c1ccccc1 (stereo unspecified) — outcome?
[A] True

[Q] Assay result, entry `O=C(CCN1C[C@@H](C(=O)O)[C@H](c2ccccc2)C1)NC1CCCC1` — outcome?
[A] False

[Q] Assay result, entry CC(CN1CCC(c2ccccc2)C1)C(=O)c1ccc2c(c1)OCCO2 (stereo unspecified) — outcome?
[A] False

The reported numbers originate from PubChem BioAssay AID743491.
